test.system: Cathepsin S (UniProt P25774)
assay.procedure: Cathepsin enzyme inhibition assay (fluorogenic peptide substrate Z-Val-Val-Arg-AMC), Cathepsin S
Format: biochemical, human and mouse
applied.conditions: enzyme 1 nM, substrate 20 μM, pH 6.5; read-out: CatS IC50
Where a name gives a salt, the structure may show the parent alone.
observable: pIC50
Hey, just a heads up that pIC50 is the negative log base 10 of the concentration in molar.

Please report the measured pIC50 for Cc1cc(N2C[C@H](S(=O)(=O)c3ccccc3Cl)C[C@H]2C(=O)NC2(C#N)CC2)n(CCc2ccccc2)n1 tested on Cathepsin S (UniProt P25774).
9.17

Provide Cathepsin S (UniProt P25774) pIC50 reading for Cc1nccn1-c1ccc(S(=O)(=O)[C@@H]2C[C@@H](C(=O)NC3(C#N)CC3)N(C(=O)C3(c4ccc(Cl)cc4)CC3)C2)c(Cl)c1 .
9.74

Fill in pIC50 for Cc1cc(N2C[C@H](S(=O)(=O)c3ccc(F)cc3C(F)(F)F)C[C@H]2C(=O)NC2(C#N)CC2)n(-c2ccnc(Cl)c2)n1 tested with Cathepsin S (UniProt P25774).
8.89

GET pIC50 | system: Cathepsin S (UniProt P25774) | item: Cc1cc(Cl)ccc1S(=O)(=O)[C@@H]1C[C@@H](C(=O)NC2(C#N)CC2)N(C(=O)OC(C)(C)C)C1
8.28

Name the recorded pIC50 of Cc1cc(N2C[C@H](S(=O)(=O)CC3CC3)C[C@H]2C(=O)NC2(C#N)CC2)n(CC(F)(F)F)n1 , assay system Cathepsin S (UniProt P25774).
5.68

Give reported pIC50 for N#CC1(NC(=O)[C@@H]2C[C@@H](S(=O)(=O)c3ccc(-n4cccn4)cc3C(F)(F)F)CN2)CC1 [Example 19, hydrochloride] (Cathepsin S (UniProt P25774))
8.89

GET pIC50 where system = Cathepsin S (UniProt P25774) and item = N#CC1(NC(=O)C2CC(S(=O)(=O)c3ccccc3C(F)(F)F)CN2c2cccc3ccccc23)CC1 (stereo not shown)
9.04

Report the value of pIC50 obtained on Cathepsin S (UniProt P25774) for CC(C)(C)N1CCN(c2ccc(S(=O)(=O)[C@@H]3C[C@@H](C(=O)NC4(C#N)CC4)N(C(=O)C4(C(F)(F)F)CC4)C3)c(Cl)c2)CC1 .
9.91

Lab note: Cathepsin S (UniProt P25774) assay, enter pIC50 for N#CC1(NC(=O)[C@@H]2C[C@@H](S(=O)(=O)c3ccc(Cl)cc3Cl)CN2C(=O)C2(C(F)(F)F)CCC2)CC1 here
9.40

Quote pIC50 with test system Cathepsin S (UniProt P25774) for CC(C)(C)N1CCN(c2ccc(S(=O)(=O)[C@@H]3C[C@@H](C(=O)NC4(C#N)CC4)N(C(=O)C4(c5ccc(Cl)cc5)CC4)C3)c(Cl)c2)CC1
9.94

---

Provide the reported pIC50 of each item.
test.system: Cathepsin S (UniProt P25774)
assay.procedure: Cathepsin enzyme inhibition assay (fluorogenic peptide substrate Z-Val-Val-Arg-AMC), Cathepsin S
Type: biochemical, human and mouse
applied.conditions: enzyme 1 nM, substrate 20 μM, pH 6.5; read-out: CatS IC50
Where a name gives a salt, the structure may show the parent alone.
In simple prose, pIC50 is minus the logarithm base ten of a concentration in moles per litre.

Note down pIC50 recorded for Cc1cc(N2C[C@H](S(=O)(=O)c3ccc(OCC(F)(F)F)cc3C(F)(F)F)C[C@H]2C(=O)NC2(C#N)CC2)n(C2CCC2)n1
9.66

Output pIC50 of Cc1cc(-n2nc(C)cc2N2C[C@H](S(=O)(=O)c3ccccc3C(F)(F)F)C[C@H]2C(=O)NC2(C#N)CC2)cc(C)n1
7.71

Provide measured pIC50 value, entry: Cc1cc(N2C[C@H](S(=O)(=O)c3ccccc3Cl)C[C@H]2C(=O)NC2(C#N)CC2)n(C2CCSCC2)n1
8.52

Recall and state the measured pIC50 for C[C@H](Oc1ccc(S(=O)(=O)[C@@H]2C[C@@H](C(=O)NC3(C#N)CC3)N(C(=O)C3(C)CC3)C2)c(Cl)c1)C(F)(F)F .
9.30

Fill in reported pIC50 for this entry: C[C@H](Oc1ccc(S(=O)(=O)[C@@H]2C[C@H](C(=O)NC3(C#N)CC3)N(C(=O)C3(C)CC3)C2)c(Cl)c1)C(F)(F)F
7.33

Give reported pIC50 value for Cc1cc(N2C[C@H](S(=O)(=O)c3ccc(N4CCN(C)CC4)cc3C(F)(F)F)C[C@H]2C(=O)NC2(C#N)CC2)n(C2CCC2)n1
9.70

Read the entry Cc1nccn1-c1ccc(S(=O)(=O)[C@H]2CN[C@H](C(=O)NC3(C#N)CC3)C2)c(C(F)(F)F)c1 [Example 24, hydrochloride] and write its reported pIC50.
8.59

Provide only the value of recorded pIC50 for N#CC1(NC(=O)[C@@H]2C[C@@H](S(=O)(=O)c3ccccc3Cl)CN2CCc2ccccc2)CC1
7.43

Hello, please tell me recorded pIC50 for this one: CC(C)(C)C(=O)N1C[C@H](S(=O)(=O)c2ccc(F)cc2C(F)(F)F)C[C@H]1C(=O)NC1(C#N)CC1
9.40

Retrieve pIC50 measured for N#CC1(NC(=O)[C@@H]2C[C@@H](S(=O)(=O)c3ccccc3Cl)CN2C(=O)C(F)(F)F)CC1 and print it.
9.10

Input CC(C)(C)OC(=O)N1C[C@H](S(=O)(=O)c2ccc(N3CCCCC3)cc2Cl)C[C@H]1C(=O)NC1(C#N)CC1 , output reported pIC50.
8.39

// Input: CC(C)(C)OC(=O)N1C[C@H](S(=O)(=O)c2ccc(-n3cnc4ccccc43)cc2C(F)(F)F)C[C@H]1C(=O)NC1(C#N)CC1 . Output its pIC50 only.
9.22

Complete the entry with pIC50 for N#CC1(NC(=O)[C@@H]2C[C@@H](S(=O)(=O)c3ccccc3Cl)CN2C(=O)C2(c3ccc(OC(F)(F)F)cc3)CC2)CC1
9.55

Please look at this compound and report its pIC50: Cn1nc(N2C[C@H](S(=O)(=O)c3ccccc3C(F)(F)F)C[C@H]2C(=O)NC2(C#N)CC2)cc1C1CCOCC1
8.43

Tell me measured pIC50 for Cc1cc(N2C[C@H](S(=O)(=O)c3ccccc3Cl)C[C@H]2C(=O)NC2(C#N)CC2)n(C2CCCCC2)n1 please.
9.22

In one line, give reported pIC50 of the entry C[C@H](Oc1ccc(S(=O)(=O)[C@@H]2C[C@@H](C(=O)NC3(C#N)CC3)N(C(=O)C3(c4ccc(Cl)nc4)CC3)C2)c(Cl)c1)C(F)(F)F .
9.53

Tell me its pIC50 given N#CC1(NC(=O)[C@@H]2C[C@@H](S(=O)(=O)c3ccccc3Cl)CN2c2nc(Cl)ns2)CC1 as the entry.
9.07

Return pIC50 for the following compound: N#CC1(NC(=O)[C@@H]2C[C@@H](S(=O)(=O)c3ccc(F)cc3F)CN2)CC1 [Example 17, Hydrochloride]
7.49

Report measured pIC50; entry is CN1CCC(C(=O)N2C[C@H](S(=O)(=O)c3ccccc3Cl)C[C@H]2C(=O)NC2(C#N)CC2)CC1
8.06

Provide only the value of recorded pIC50 for N#CC1(NC(=O)[C@@H]2C[C@@H](S(=O)(=O)c3ccc(-n4ccnc4-c4ccccc4)cc3C(F)(F)F)CN2)CC1 [Example 25, hydrochloride]
8.64

Read off the recorded pIC50 for CCOC(=O)N1C[C@H](S(=O)(=O)c2ccccc2Cl)C[C@H]1C(=O)NC1(C#N)CC1
8.59

Using known records, supply pIC50 for N#CC1(NC(=O)[C@@H]2C[C@@H](S(=O)(=O)c3ccc(Cl)cc3Cl)CN2)CC1 [Example 15, Hydrochloride]
8.35

Quickly give me recorded pIC50 for N#CC1(NC(=O)[C@@H]2C[C@@H](S(=O)(=O)c3ccccc3Cl)CN2C(=O)C2(Oc3ccc(Cl)cc3)CC2)CC1
7.15

Read the entry N#CC1(NC(=O)[C@@H]2C[C@@H](S(=O)(=O)c3ccc(N4CCC(F)(F)CC4)cc3Cl)CN2C(=O)C2(C(F)(F)F)CC2)CC1 and write its reported pIC50.
9.40

Kindly indicate its recorded pIC50. Item: N#CC1(NC(=O)[C@@H]2C[C@@H](S(=O)(=O)c3ccccc3C(F)(F)F)CN2C(=O)C2CCCCC2)CC1
9.70

Consider the compound CC(C)(C)C(=O)N1C[C@H](S(=O)(=O)c2ccccc2Cl)C[C@H]1C(=O)NC1(C#N)CC1 . State its measured pIC50.
9.15
